Data origin: patent US20130058930A1

# test.name: Three-period crossover relative bioavailability study of methotrexate injectable solutions (Vibex device SC vs needle and syringe SC and IM)
# Format: in vivo, human
# cond: human, plasma, sc, 15 mg, 15 mg single dose, subcutaneous with Vibex device
measured.endpoint: Tmax

> print(dat)
                                   compound  measured.endpoint  reported.result
1  CN(Cc1cnc2nc(N)nc(N)c2n1)c1ccc(C(=O)N[C@@H](CCC(=O)O)C(=O)O)cc1 [methotrexate]               Tmax          ~1.25 h

###

# test.name: Three-period crossover relative bioavailability study of methotrexate injectable solutions (Vibex device SC vs needle and syringe SC and IM)
# Type: in vivo, human
# cond: human, plasma, sc, 10 mg, 10 mg single dose, subcutaneous with Vibex device
measured.endpoint: AUC(0-inf)

> print(dat)
                                   compound  reported.result
1  CN(Cc1cnc2nc(N)nc(N)c2n1)c1ccc(C(=O)N[C@@H](CCC(=O)O)C(=O)O)cc1 [methotrexate]    ~1160 ng·h/mL

###

# test.name: Three-period crossover relative bioavailability study of methotrexate injectable solutions (Vibex device SC vs needle and syringe SC and IM)
# Assay type: in vivo, human
# cond: human, plasma, sc, 10 mg, 10 mg single dose, subcutaneous with Vibex device
measured.endpoint: Tmax

> print(dat)
                                   compound  reported.result
1  CN(Cc1cnc2nc(N)nc(N)c2n1)c1ccc(C(=O)N[C@@H](CCC(=O)O)C(=O)O)cc1 [methotrexate]           1.33 h

###

# test.name: Three-period crossover relative bioavailability study of methotrexate injectable solutions (Vibex device SC vs needle and syringe SC and IM)
# Format: in vivo, human
# cond: human, plasma, sc, 10 mg, 10 mg single dose, subcutaneous with Vibex device, plasma; read-out: AUC(0-t)
measured.endpoint: AUC(0-t)

> print(dat)
                                   compound  measured.endpoint  reported.result
1  CN(Cc1cnc2nc(N)nc(N)c2n1)c1ccc(C(=O)N[C@@H](CCC(=O)O)C(=O)O)cc1 [methotrexate]           AUC(0-t)    ~1140 ng·h/mL

###

# test.name: Three-period crossover relative bioavailability study of methotrexate injectable solutions (Vibex device SC vs needle and syringe SC and IM)
# Assay type: in vivo, human
# cond: human, plasma, sc, 20 mg, 20 mg single dose, subcutaneous with Vibex device
measured.endpoint: Tmax

> print(dat)
                                   compound  reported.result
1  CN(Cc1cnc2nc(N)nc(N)c2n1)c1ccc(C(=O)N[C@@H](CCC(=O)O)C(=O)O)cc1 [methotrexate]          ~1.17 h

###

# test.name: Three-period crossover relative bioavailability study of methotrexate injectable solutions (Vibex device SC vs needle and syringe SC and IM)
# Assay type: in vivo, human
# cond: human, plasma, sc, 15 mg, 15 mg single dose, subcutaneous with Vibex device
# Experimental: This was a randomized, open-label, 3-way crossover study involving 36 subjects. […] One of six treatment sequences was possible as determined by the randomization schedule. […] Immediately following collection of each sample, each tube was gently inverted and placed in ice. […] The storage tubes were placed in a freezer at […] or below until they analyzed. […] Pharmacokinetic parameters were calculated from the individual concentrations of MTX using noncompartmental methods. […]
measured.endpoint: AUC(0-inf)

> print(dat)
                                   compound  measured.endpoint  reported.result
1  CN(Cc1cnc2nc(N)nc(N)c2n1)c1ccc(C(=O)N[C@@H](CCC(=O)O)C(=O)O)cc1 [methotrexate]         AUC(0-inf)    ~1980 ng·h/mL
